test: chemical genetic growth profiling, strain panel (AID 1159580);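 also: tested at 20 µM; growth read once vehicle control cultures reached saturation at 30 °C; 1 = growth at the plate median or of vehicle wells; lower values mean less growth of the strain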; details: S. cerevisiae deletion strains, growth OD, locus YNL307C, strain MCK1
The whole screen tested about 5,500 compounds, of which about 2,000 (36%) were called active. Not shown: some 18% with an inconclusive outcome. Rule as the data show it: active = normalized growth mostly below about 0.91 (no sharp cut-off); inconclusive = no clear call, values can overlap the other calls; inactive = mostly above about 0.92. Some of the results follow.
Labels: True (active), False (inactive)

| compound | assigned category |
| --- | --- |
| CC1CC2C3CC(F)C4=CC(=O)C=CC4(C)C3(F)C(O)CC2(C)C1C(=O)COC(=O)C(C)(C)C (configuration not stated) | False |
| CC(=O)N=c1sc(S(N)(=O)=O)nn1C | False |
| CC1=C2[C@H]3OC(=O)[C@@H](C)[C@@H]3CC[C@@]2(C)C=CC1=O | False |
| NCC(CC(=O)O)c1ccc(Cl)cc1 (configuration not stated) | False |
| C=C[C@H]1CN2CC[C@H]1C[C@@H]2[C@H](O)c1ccnc2ccccc12 | False |
| C=C1[C@H]2CC[C@@]3(C)[C@H](c4ccoc4)OC(=O)C[C@]13O[C@H]1C[C@H](O)C(C)(C)[C@H](CC(=O)OC)[C@]12C | False |
| CN[C@@H]1[C@H](OC2[C@H](O[C@H]3[C@H](O)[C@@H](O)[C@H](N=C(N)N)[C@@H](O)[C@@H]3N=C(N)N)O[C@@H](C)[C@]2(O)C=O)O[C@@H](CO)[C@H](O)[C@H]1O (some centres not stated) | False |
| COc1c2ccoc2nc2c(OC)c(OCC(O)C(C)(C)O)ccc12 (configuration not stated) | False |
| C=C1C2CC[C@@]3(C)[C@H](c4ccoc4)OC(=O)C[C@]13O[C@H]1CC(=O)C(C)(C)C(CC(=O)OC)[C@@]21C (some centres not stated) | False |
| CN(C)CCOC(=O)COc1ccc(Cl)cc1 | False |
| COC(=O)CCCOc1ccc(Cl)cc1Cl | False |
| COc1ccc(C(=O)CC(=O)c2ccc(C(C)(C)C)cc2)cc1 | False |
| COc1ccc(C(=O)N2CCCC2=O)cc1 | False |
| CN(C)CCC(c1ccc(Br)cc1)c1ccccn1 (configuration not stated) | False |
| COC(=O)CCC(=O)O[C@H]1CCC2(C)C(CCC3C2C(=O)[C@@H](O)C2(C)C3CC3OC4(CCC(C)CO4)[C@@H](C)C32)C1 (some centres not stated) | False |
| CCCCSP(=O)(SCCCC)SCCCC | False |
| Nc1cc(-c2ccncc2)c[nH]c1=O | True |
| Nc1ccncc1 | False |
| CN(C)N=Nc1nc[nH]c1C(N)=O | False |
| OC1=Cc2c(O)cc(O)cc2OC1(O)c1ccc(O)c(O)c1 (configuration not stated) | False |
| Cc1cccc(Nc2ccncc2S(=O)(=O)NC(=O)NC(C)C)c1 | False |
| O=C(O)CCCOc1ccc(Cl)cc1Cl | False |

###

assay: chemical genetic growth profiling, strain panel (AID 1159580);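 also: tested at 20 µM; growth read once vehicle control cultures reached saturation at 30 °C; 1 = growth at the plate median or of vehicle wells; lower values mean less growth of the strain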; conditions: S. cerevisiae deletion strains, growth OD, locus YDR388W, hits give low values
In all, about 5,500 compounds went through this assay and about 2,000 (36%) were called active. Inconclusive results (about 18%) are left out. This is one part of the list.
Reported normalized growth values are given for each entry in this list.

| compound | normalized growth |
| --- | --- |
| OC1=Cc2c(O)cc(O)cc2OC1(O)c1ccc(O)c(O)c1 (centres undefined) | 0.994 |
| CC1=C2[C@H]3OC(=O)[C@@H](C)[C@@H]3CC[C@@]2(C)C=CC1=O | 1.01 |
| NNCCc1ccccc1 | 0.991 |
| CC1(C)C(=O)C=C[C@@]2(C)C1CC(=O)[C@@]1(C)C3=CC(=O)O[C@@H](c4ccoc4)[C@]3(C)CCC12 (some centres undefined) | 0.996 |
| CCOC(=O)[C@H](CCc1ccccc1)N[C@@H](C)C(=O)N1Cc2ccccc2C[C@H]1C(=O)O | 1.01 |
| C[C@@H]1O[C@@H](O[C@H]2C[C@@H](O)[C@]3(CO)C4C(CC[C@]3(O)C2)[C@@]2(O)CC[C@H](C3=CC(=O)OC3)[C@@]2(C)C[C@H]4O)[C@H](O)[C@H](O)[C@H]1O (some centres undefined) | 0.992 |
| CN[C@@H]1[C@H](OC2[C@H](O[C@H]3[C@H](O)[C@@H](O)[C@H](N=C(N)N)[C@@H](O)[C@@H]3N=C(N)N)O[C@@H](C)[C@]2(O)C=O)O[C@@H](CO)[C@H](O)[C@H]1O (some centres undefined) | 1.02 |
| CCN(CCCc1ccccc1)CCCc1ccccc1 | 1.02 |
| CC12CC3CC(C)(C1)CC(N)(C3)C2 | 1.01 |
